Entry source: ChEMBL document CHEMBL1201862

I'd be grateful if you could share measured GI50 for these entries.
Tested on: A549
Assay: NCI tumour cell line growth inhibition, 48 h
Calls of active or inactive are those of the source. Rule as the data show it: active = GI50 up to about 1.1 µM and inactive = higher.

q: Report GI50 on A549 for this entry: C=CCCC1CCCCC/C1=N\N(C)C (centres undefined)
a: > 100 µM (inactive)

q: Report GI50 on A549 for this entry: "COC(=O)CCNC(=O)OCc1ccccc1"
a: > 100 µM (inactive)

q: Report GI50 on A549 for this entry: O=C(O)C1=NN(c2ccc(S(=O)(=O)O)cc2)C2(C1)C(Cl)C(=O)N2c1nc2ccccc2s1 (centres undefined)
a: 16.6 µM (inactive)

q: Report GI50 on A549 for this entry: "Cc1ccc(C2(c3ccc(C)cc3)SC(=C(C#N)C#N)c3ccccc32)cc1"
a: > 100 µM (inactive)

q: Report GI50 on A549 for this entry: N#CC1(C#N)C2CCCCC23OC(=N)C1(C#N)C(c1ccco1)O3 (centres undefined)
a: > 100 µM (inactive)

q: Report GI50 on A549 for this entry: O=C1/C(=C/c2ccncc2)C(n2cccc2)c2c(Br)sc(Br)c21 (centres undefined)
a: 14.9 µM (inactive)

q: Report GI50 on A549 for this entry: CC1C(c2ccccc2O)c2cc3c(cc2OC1N1CCCC1)OCO3 (centres undefined)
a: 31 µM (inactive)

q: Report GI50 on A549 for this entry: "CCOC(=O)/C(C#N)=N\Nc1ccc(-n2c(C)nc3ccccc3c2=O)cc1"
a: 73.6 µM (inactive)

q: Report GI50 on A549 for this entry: C[C@@]1(O)C2C3CC4C5C3C1[C@](O)(C42)[C@H]5Br (some centres undefined)
a: > 100 µM (inactive)

###

I'd be grateful if you could share measured GI50 for these entries.
Tested on: NCI-H23
Test: NCI tumour cell line growth inhibition, 48 h
Activity calls are given as the source filed them. Rule as the data show it: active = GI50 up to about 1.1 µM and inactive = higher.

q: For the compound "Nc1nc(N)c2ncn(Cc3c(Cl)cccc3Cl)c2n1" , give its reported GI50.
a: > 100 µM (inactive)

q: For the compound "COc1cc(S(=O)(=O)Nc2ccc(-c3csc(N)n3)cc2)ccc1Cl" , give its reported GI50.
a: 21.2 µM (inactive)

q: For the compound "COc1ccc(OCc2nc3cc(C(F)(F)F)ccc3nc2-c2ccccc2)cc1" , give its reported GI50.
a: > 100 µM (inactive)

q: For the compound Nc1ccc(COC(O)CN2CCCCC2)cc1[N+](=O)[O-] (stereo not given) , give its reported GI50.
a: > 100 µM (inactive)

q: For the compound N#CC1(C#N)C2CCCCC23OC(=N)C1(C#N)C(c1ccco1)O3 (stereo not given) , give its reported GI50.
a: 26.1 µM (inactive)

q: For the compound "CCNC1=C(NC(=O)c2ccc(F)cc2)C(=O)c2ccccc2C1=O" , give its reported GI50.
a: 34.6 µM (inactive)

q: For the compound "CSc1n/c(=N\c2ccccc2)sn1-c1ccccc1" , give its reported GI50.
a: 14.1 µM (inactive)

q: For the compound CC(C(=O)Oc1ccc2ccccc2c1-c1c(O)ccc2ccccc12)c1ccccc1 (stereo not given) , give its reported GI50.
a: 14.4 µM (inactive)

q: For the compound "CCCC[C@H]1[C@@H](OCOc2ccccc2)COC(=O)N1[C@H](C)c1ccccc1" , give its reported GI50.
a: 18.2 µM (inactive)

q: For the compound O=C(O)C1CCCCN1C(=O)c1ccccc1 (stereo not given) , give its reported GI50.
a: > 100 µM (inactive)
